Source: ChEMBL document CHEMBL1137966

Reported values: pKi for Prothrombin (Homo sapiens), one per item.
Scale: negative log10 of molar concentration, which is what pKi denotes.

Worked examples follow.
Compound | Target or test system | pKi
N=C(N)c1ccc(CN(NS(=O)(=O)c2ccc3ccccc3c2)C(=O)N2CCCCC2)cc1 | Prothrombin (Homo sapiens) | 7.02
CC1CCCCN1C(=O)N(Cc1ccc(C(=N)NO)cc1)NS(=O)(=O)c1ccc2ccccc2c1 (stereo not drawn) | Prothrombin (Homo sapiens) | 6.37

Now for another entry.
query: Please tell me: pKi of CC1CCCCN1C(=O)N(Cc1ccc(C(=N)N)cc1)NS(=O)(=O)c1ccc2ccccc2c1 (stereo not drawn) , system Prothrombin (Homo sapiens)?
result: 7.07

====

Collected pKi values appear next to each entry.
Target or test system: Serine protease 1 (Homo sapiens, UniProt P07477)
Sequence (P07477 whole entry): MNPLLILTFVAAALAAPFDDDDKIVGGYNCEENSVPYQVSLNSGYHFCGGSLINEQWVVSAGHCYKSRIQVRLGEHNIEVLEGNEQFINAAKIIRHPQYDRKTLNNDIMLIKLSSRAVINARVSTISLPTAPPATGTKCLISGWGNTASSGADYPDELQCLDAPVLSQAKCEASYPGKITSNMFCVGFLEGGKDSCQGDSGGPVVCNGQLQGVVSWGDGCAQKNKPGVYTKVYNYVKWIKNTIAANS
Assay summary: In vitro inhibition of trypsin
For clarity, pKi is expressed as the negative log10 of concentration in mol/L.

In the examples that follow, each entry is paired with its recorded pKi.
Molecule | Recorded number
N=C(N)c1ccc(CN(NS(=O)(=O)c2ccc3ccccc3c2)C(=O)N2CCCCC2)cc1 | 4.89
N=C(N)c1ccc(CN(NS(=O)(=O)c2ccc3ccccc3c2)C(=O)N2CCCCCC2)cc1 | 5.00

Could you now consider this next molecule?
query: Query: pKi; subject: CC1CCCCN1C(=O)N(Cc1ccc(C(=N)NO)cc1)NS(=O)(=O)c1ccc2ccccc2c1 (stereo unspecified)
result: 4.35

====

Target or test system: UniProtKB P00742
Sequence (P00742 41-179 limits assumed): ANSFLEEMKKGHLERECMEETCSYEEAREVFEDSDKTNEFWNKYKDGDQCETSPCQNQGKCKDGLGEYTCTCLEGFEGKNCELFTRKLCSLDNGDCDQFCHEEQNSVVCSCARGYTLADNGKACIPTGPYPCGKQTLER
Sequence (P00742 235-488 limits assumed): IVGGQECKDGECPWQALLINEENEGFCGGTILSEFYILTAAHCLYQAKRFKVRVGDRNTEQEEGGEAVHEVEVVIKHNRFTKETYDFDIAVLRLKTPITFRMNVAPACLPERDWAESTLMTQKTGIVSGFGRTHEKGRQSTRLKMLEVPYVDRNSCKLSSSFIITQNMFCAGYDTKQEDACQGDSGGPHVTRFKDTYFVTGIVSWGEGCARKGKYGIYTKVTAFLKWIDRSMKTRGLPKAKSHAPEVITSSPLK
Observation type: pKi
The value called pKi is obtained by taking minus log10 of the concentration in mol/L.

// below: answered compounds
Compound | Recorded number
COc1ccc2cc(S(=O)(=O)NN(Cc3cccc(C(=N)NO)c3)C(=O)N3CCCCCC3)ccc2c1 | 3.99
CC1CCCCN1C(=O)N(Cc1cccc(C(=N)NO)c1)NS(=O)(=O)c1ccc2ccccc2c1 (centres undefined) | 5.27
CC1CCN(C(=O)N(Cc2cccc(C(=N)N)c2)NS(=O)(=O)c2ccc3ccccc3c2)CC1 | 5.28

Please turn your attention to the following entry.
query: Kindly state the measured pKi obtained for N=C(N)c1cccc(CN(NS(=O)(=O)c2ccc3ccccc3c2)C(=O)N2CCCCCC2)c1 with UniProtKB P00742.
result: 5.41

====

Attribute: Ki
Target or test system: UniProtKB P00734
Reply with just the number (in nM).

Worked cases, answers included:
Compound | Unit name | Ki
N/C(=N\O)c1ccc(CN(NS(=O)(=O)c2ccc(-c3ccccc3)cc2)C(=O)N2CCCCCC2)cc1 | nM | 1600
N=C(N)c1ccc(CN(NS(=O)(=O)c2ccc(-c3ccccc3)cc2)C(=O)N2CCCCCC2)cc1 | nM | 150
CC1CCN(C(=O)N(Cc2ccc(C(=N)NO)cc2)NS(=O)(=O)c2ccc3ccccc3c2)CC1 | nM | 770

Now for another entry.
query: Form field - read-out: Ki; system: UniProtKB P00734; submitted item: COc1ccc2cc(S(=O)(=O)NN(Cc3cccc(C(=N)NO)c3)C(=O)N3CCCCC3C)ccc2c1 (centres undefined)
result: 4200

====

// Ki collected for Serine protease 1 (Homo sapiens)

Item smiles | Ki
CC1CCN(C(=O)N(Cc2ccc(C(=N)NO)cc2)NS(=O)(=O)c2ccc3ccccc3c2)CC1 | > 68 µM
CC1CCN(C(=O)N(Cc2cccc(C(=N)NO)c2)NS(=O)(=O)c2ccc3ccccc3c2)CC1 | > 68 µM

Now consider a different compound.
query: Bench note: what Ki did N/C(=N\O)c1ccc(CN(NS(=O)(=O)c2ccc(-c3ccccc3)cc2)C(=O)N2CCCCCC2)cc1 show?
result: > 400 µM
